Some compounds, each annotated with its measured growth inhibition.
# Assay Details: NCI Yeast Anticancer Drug Screen. Data for the rad14 strain (AID 159);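 note: 0% = growth of vehicle-treated control cultures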
# Experimental Setup: S. cerevisiae rad14 strain growth inhibition; at 11.0 µM; active compounds read high
The panel holds about 79,000 compounds, 15% with a hit somewhere; the sample as a whole holds those more often.
Measured Endpoint: growth inhibition (%)

>>> df
                                   compound  measured_endpoint  unit_tag  measured_number
0        CN1CCN(C(=O)/C=C/C(=O)c2ccccc2)CC1  growth inhibition         %               20
1  CN(C)CCOC1(Cc2ccc(F)cc2)CCC(C(C)(C)C)CC1 (stereo not given)  growth inhibition         %               10
2  COc1cccc2c1C(=O)c1c(O)c3c(c(O)c1C2=O)C[C@@](O)(C(C)=O)C[C@@H]3OC1CC(OC(C)=O)C(OC(C)=O)C(C)O1 (stereo not given in full)  growth inhibition         %               -6
3  COc1cc(C2c3cc4c(cc3OC(OC(C)=O)C2C)OCO4)cc(OC)c1OC (stereo not given)  growth inhibition         %              -11
4                CN1C(=O)c2ccc3ccccc3c2C1=O  growth inhibition         %               20

====

Some molecules, each annotated with its measured growth inhibition.
# Assay Details: NCI Yeast Anticancer Drug Screen. Data for the mgt1 strain (AID 153)
# Experimental Setup: S. cerevisiae mgt1 mutant growth inhibition; at 33.0 µM; active compounds read high
The panel holds about 79,000 compounds, 15% with a hit somewhere; the sample as a whole holds those more often.
Measured Endpoint: growth inhibition (%)

>>> df
                                   molecule  measured_number
0  Nc1ccn(C2OC(COP(=O)(O)O)C(O)C2O)c(=O)n1 (stereo not drawn)                3
1     Cc1ccc(NCCNCCO)c2c(=O)c3cc(O)ccc3sc12               -1
2  Cc1cc(-c2cc(C)c(O)c(C(C)(C)C)c2)cc(C(C)(C)C)c1O              -16

====

# Assay Details: NCI Yeast Anticancer Drug Screen. Data for the rad52 strain (AID 147);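 note: 0% = growth of vehicle-treated control cultures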
# Experimental Setup: S. cerevisiae rad52 mutant growth inhibition; at 1.2 µM; active compounds read high
This is part of a sample that, as a whole, favours compounds with a hit. Of some 79,000 tested, about 15% had one in any assay.
Measured Endpoint: growth inhibition (%)

Molecule	Unit Tag	Measured Number
O=C(NCCCl)Sc1ccc(Cl)cc1	%	3
CCOC(=O)c1[nH]cc(C)c1-c1cccn1-c1ccc(Cl)cc1[N+](=O)[O-]	%	13
O=C1C(Br)=C(c2ccccc2)O/C1=C/C(=O)c1ccc(Br)cc1	%	2
CC1OC(O[C@H]2/C=C/C=C/C=C/C=C/C=C/C=C/C=C/[C@H](C)[C@@H](O)[C@@H](C)[C@H](C)OC(=O)C[C@H](O)C[C@H](O)CC[C@@H](O)[C@H](O)C[C@H](O)C[C@]3(O)C[C@H](O)[C@@H](C(=O)O)[C@H](C2)O3)C(O)C(N)C1O (stereo not given in full)	%	2
CCOC(=O)c1[nH]n(-c2ccccc2)c(=O)c1C=NC(=S)C(N)=S	%	24
